# Test system: cotton aphids (aphis gossypii)
# Method notes: Insecticidal test for cotton aphid, foliar spray on infested squash cotyledons
# Format: in vivo
# Cond: 50 ppm spray, graded after 3 days, versus untreated check
# Description: Insecticidal Test for Cotton Aphid (Aphis gossypii) To prepare spray solutions, 2 mg of each test compound was dissolved into 2 mL of a 90:10 acetone:ethanol solvent. This 2 mL of chemical solution was added to 38 mL of water containing 0.05% Tween 20 surfactant to produce a 50 ppm spray solution. […]
Value kind: CA: activity at 50 ppm against cotton aphids (rating of % mortality / percent control)

| Molecule | Target entity | Reported |
| --- | --- | --- |
| Cc1nc(Cl)sc1-c1nc(-c2c(F)cccc2Cl)nn1C | cotton aphids (aphis gossypii) | A (91-100) |
| Cn1nc(-c2c(F)cccc2F)nc1-c1snnc1-c1ccccc1 | cotton aphids (aphis gossypii) | A (91-100) |
| Cn1nc(-c2c(F)cccc2F)nc1-c1csc(-c2cccs2)n1 | cotton aphids (aphis gossypii) | A (91-100) |
